condition summary: [M+Na]+; instrument: DT; stepped-field
measurement name: collision cross section (N2) (Å²)

Take a look at these entries with their results.
molecule	collision cross section (N2), Å²
Cc1cn([C@H]2C[C@H](O)[C@@H](CO)O2)c(=O)[nH]c1=O	164.51
C=CCc1ccc(OC)c(OC)c1	160.36
O=C(O)CNC(=O)c1ccccc1O [2-Hydroxy Hippuric Acid]	154.87
CCCCC/C=C\C/C=C\CCCCCCCCCC(=O)O	184.05
N[C@@H](CSCC(=O)O)C(=O)O	142.13

[a] CC(C)(CO)[C@@H](O)C(=O)NCCC(=O)O
[b] CCCCCCCC/C=C\CCCCCCCC(=O)OC[C@@H](O)COP(=O)([O-])OCC[N+](C)(C)C [18:1 Lyso PC]
Input: Which value of collision cross section (N2) is numerically greater: that of a or that of b ? Bench note: the answer is the label of the chosen record.
Output: b
(b: 239.53 Å², a: 155.27 Å²)
